test system: KRAS-mutant PDC multicell tumor spheroid viability; assay: Anticancer human tumor 521955-158-R2-J5-PDC patient-derived pancreatic carcinoma cell line growth inhibition [KRAS2]; settings: curve of compound
RESULT TYPE: IC50

{"columns": ["MOLECULE", "TEST RESULT"],
 "data": [
  ["CC1(C)CCC(CN2CCN(c3ccc(C(=O)NS(=O)(=O)c4ccc(NCC5CCOCC5)c([N+](=O)[O-])c4)c(Oc4cnc5[nH]ccc5c4)c3)CC2)=C(c2ccc(Cl)cc2)C1", "6.08 µM [middle of 5 runs]"],
  ["CC1OCC2(CCN(c3cnc(Sc4ccnc(N)c4Cl)c(N)n3)CC2)C1N (stereo unspecified)", "> 10000 nM"],
  ["CC1COCCN1c1cc(-c2ccnn2C)c2ccnc(-c3ccn[nH]3)c2n1 (stereo unspecified)", "34.4 nM [middle of 5 runs]"],
  ["Cn1nccc1Nc1nccc(-c2cc3c(s2)C(C)(C)N(CCN2CCOCC2)C3=O)n1", "902 nM [middle of 5 runs]"],
  ["CN(C)C/C=C/C(=O)Nc1cc2c(Nc3ccc(F)c(Cl)c3)ncnc2cc1O[C@H]1CCOC1", "> 100 nM"],
  ["CC(=O)OC12COC1CC(O)C1(C)C(=O)C(O)C3=C(C)C(OC(=O)C(O)C(NC(=O)OC(C)(C)C)c4ccccc4)CC(O)(C(OC(=O)c4ccccc4)C21)C3(C)C (stereo unspecified)", "< 10 nM"],
  ["CC(=O)Nc1cccc(-n2c(=O)n(C3CC3)c(=O)c3c(Nc4ccc(I)cc4F)n(C)c(=O)c(C)c32)c1", "0.337 nM [middle of 5 runs]"],
  ["O=C(c1cc(Cc2n[nH]c(=O)c3ccccc23)ccc1F)N1CCN(C(=O)C2CC2)CC1", "> 10000 nM"],
  ["COc1cc(OC)cc(N(CCNC(C)C)c2ccc3ncc(-c4cnn(C)c4)nc3c2)c1", "6.06 µM [middle of 4 runs]"],
  ["COc1cc(Nc2ncc3c(n2)-c2ccc(Cl)cc2C(c2c(F)cccc2OC)=NC3)ccc1C(=O)O", "< 31.6 nM"],
  ["CC(C)NCC(C(=O)N1CCN(c2ncnc3c2C(C)CC3O)CC1)c1ccc(Cl)cc1 (stereo unspecified)", "> 10000 nM"],
  ["CCN1CCN(Cc2ccc(Nc3ncc(F)c(-c4cc(F)c5nc(C)n(C(C)C)c5c4)n3)nc2)CC1", "> 1000 nM"],
  ["CC(C)n1nc(-c2ccc3oc(N)nc3c2)c2c(N)ncnc21", "9.42 nM [middle of 5 runs]"],
  ["CCNC(=O)CC1N=C(c2ccc(Cl)cc2)c2cc(OC)ccc2-n2c(C)nnc21 (stereo unspecified)", "692 nM [middle of 5 runs]"],
  ["COC(=O)c1ccc2c(C(=Nc3ccc(N(C)C(=O)CN4CCN(C)CC4)cc3)c3ccccc3)c(O)[nH]c2c1", "2.06 µM [middle of 5 runs]"],
  ["Cn1ncnc1[C@H]1c2n[nH]c(=O)c3cc(F)cc(c23)N[C@@H]1c1ccc(F)cc1", "> 100 nM"]
]}

====

test system: KRAS-mutant PDC multicell tumor spheroid viability; assay: Anticancer human tumor 521955-158-R2-J5-PDC cell line growth inhibition [KRAS2]; conditions: second compound 1 µM; first compound 0.316 µM; stronger effect = lower value;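 note: viability read after seven days of drug exposure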
RESULT TYPE: viability, T/C (%)

{"columns": ["COMPOUND", "RESULT TYPE", "READING UNIT", "TEST RESULT"],
 "data": [
  ["CC1COCCN1c1cc(-c2ccnn2C)c2ccnc(-c3ccn[nH]3)c2n1 (stereo not given) + CNCc1ccccc1-c1csc(C(C)Nc2nc(C)nc3cc(OC)c(OC)cc23)c1", "viability, T/C", "%", 11.7],
  ["CCNC(=O)CC1N=C(c2ccc(Cl)cc2)c2cc(OC)ccc2-n2c(C)nnc21 (stereo not given) + C=CC(=O)N1CCN(c2nc(=O)n(-c3c(C)ccnc3C(C)C)c3nc(-c4c(O)cccc4F)c(F)cc23)C(C)C1", "viability, T/C", "%", 77],
  ["CC(C)NCC(C(=O)N1CCN(c2ncnc3c2C(C)CC3O)CC1)c1ccc(Cl)cc1 (stereo not given) + C=CC(=O)N1CCN(c2nc(OCC3CCCN3C)nc3c2CCN(c2cccc4cccc(C)c24)C3)CC1CC#N", "viability, T/C", "%", 65.8],
  ["CCNC(=O)CC1N=C(c2ccc(Cl)cc2)c2cc(OC)ccc2-n2c(C)nnc21 (stereo not given) + C=CC(=O)N1CCN(c2nc(OCC3CCCN3C)nc3c2CCN(c2cccc4cccc(C)c24)C3)CC1CC#N", "viability, T/C", "%", 48.1],
  ["CC(C)NCC(C(=O)N1CCN(c2ncnc3c2C(C)CC3O)CC1)c1ccc(Cl)cc1 (stereo not given) + COc1cc2nc(C)nc(NC(C)c3cc(N)cc(C(F)(F)F)c3)c2cc1OC1CCOC1", "viability, T/C", "%", 60.2]
]}
